// data source = paper PMC4788467

target: biotinylated soluble HLA-A2/WT1_(126) (…) complex (Homo sapiens, HLA-A*02:01, biotin (the complex is biotinylated; site not stated)); experiment: SPR
API: label(entry) gives yes (1) if the entry's Kd is strictly smaller than 10 nM; on equality or larger values it gives no (0).

// query Lab note: Kd threshold 10 nM. Does this binder come in strictly under it? Q2L scFv-Fc (Fc fusion) VH: EVQLLESGGGLVQPGGSLRLSCAASGFTFSSYAMSWVRQAPGKGLEWVSLIDPWGQETLYADSVKGRFTISRDNSKNTLYLQMNSLRAEDTAVYYCAKLTGRFDYWGQGTLVTVSS VL: DIQMTQSPSSLSASVGDRVTITCRASQSISSYLNWYQQKPGKAPKLLIYSASLLQSGVPSRFSGSGSGTDFTLTISSLQPEDFATYYCQQGPGTPNTFGQGTKVEIK
// result yes (1)

// query Entry to check: Q2L scFv (scFv, V domains shown) VH: EVQLLESGGGLVQPGGSLRLSCAASGFTFSSYAMSWVRQAPGKGLEWVSLIDPWGQETLYADSVKGRFTISRDNSKNTLYLQMNSLRAEDTAVYYCAKLTGRFDYWGQGTLVTVSS VL: DIQMTQSPSSLSASVGDRVTITCRASQSISSYLNWYQQKPGKAPKLLIYSASLLQSGVPSRFSGSGSGTDFTLTISSLQPEDFATYYCQQGPGTPNTFGQGTKVEIK
// result yes (1)

// query Param item: Q1L scFv (scFv, V domains shown) VH: EVQLLESGGGLVQPGGSLRLSCAASGFTFSSYAMSWVRQAPGKGLEWVSLIDPWGQETLYADSVKGRFTISRDNSKNTLYLQMNSLRAEDTAVYYCAKLTGRFDYWGQGTLVTVSS VL: DIQMTQSPSSLSASVGDRVTITCRASQSISSYLNWYQQKPGKAPKLLIYSASQLQSGVPSRFSGSGSGTDFTLTISSLQPEDFATYYCQQGPGTPNTFGQGTKVEIK
// result no (0)

// query Ok, now S3.6 scFv (scFv, V domains shown) VH: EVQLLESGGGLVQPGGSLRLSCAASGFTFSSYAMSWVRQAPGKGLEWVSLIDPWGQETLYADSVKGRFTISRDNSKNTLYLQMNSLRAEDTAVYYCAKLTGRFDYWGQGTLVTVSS VL: DIQMTQSPSSLSASVGDRVTITCRASQSISNYLNWYQQKPGKAPKLLIYSASQLQSGVPSRFSGSGSGTVFTLTISSLQPEDFATYYCQQGPGTPNTFGQGTKVEIK
// result no (0)

// query Request: S3.1 scFv (scFv, V domains shown) VH: EVQLLESGGGLVQPGGSLRLSCAASGFTFSSYAMSWVRQAPGKGLEWVSLIDPWGQETLYADSVKGRFTISRDNSKNTLYLQMNSLGAEDTAVYYCAKLTGRFDYWGQGTLVTVSS VL: DIQMTQSPSSLSASVGDRVTITCRASQSISSYLNWYQQKPGKAPKLLIYSASQLQSGVPSRFSGSGSGTDFTLTISNLQPEDFATYYCQQGPGTPNTFGQGTKVEIK
// result no (0)
